Counter-ions that a name gives are not always drawn.
These compounds were tested on VZV polymerase (Varicella-zoster virus); IC50 is the recorded read-out.
Sequence (P09252 whole entry): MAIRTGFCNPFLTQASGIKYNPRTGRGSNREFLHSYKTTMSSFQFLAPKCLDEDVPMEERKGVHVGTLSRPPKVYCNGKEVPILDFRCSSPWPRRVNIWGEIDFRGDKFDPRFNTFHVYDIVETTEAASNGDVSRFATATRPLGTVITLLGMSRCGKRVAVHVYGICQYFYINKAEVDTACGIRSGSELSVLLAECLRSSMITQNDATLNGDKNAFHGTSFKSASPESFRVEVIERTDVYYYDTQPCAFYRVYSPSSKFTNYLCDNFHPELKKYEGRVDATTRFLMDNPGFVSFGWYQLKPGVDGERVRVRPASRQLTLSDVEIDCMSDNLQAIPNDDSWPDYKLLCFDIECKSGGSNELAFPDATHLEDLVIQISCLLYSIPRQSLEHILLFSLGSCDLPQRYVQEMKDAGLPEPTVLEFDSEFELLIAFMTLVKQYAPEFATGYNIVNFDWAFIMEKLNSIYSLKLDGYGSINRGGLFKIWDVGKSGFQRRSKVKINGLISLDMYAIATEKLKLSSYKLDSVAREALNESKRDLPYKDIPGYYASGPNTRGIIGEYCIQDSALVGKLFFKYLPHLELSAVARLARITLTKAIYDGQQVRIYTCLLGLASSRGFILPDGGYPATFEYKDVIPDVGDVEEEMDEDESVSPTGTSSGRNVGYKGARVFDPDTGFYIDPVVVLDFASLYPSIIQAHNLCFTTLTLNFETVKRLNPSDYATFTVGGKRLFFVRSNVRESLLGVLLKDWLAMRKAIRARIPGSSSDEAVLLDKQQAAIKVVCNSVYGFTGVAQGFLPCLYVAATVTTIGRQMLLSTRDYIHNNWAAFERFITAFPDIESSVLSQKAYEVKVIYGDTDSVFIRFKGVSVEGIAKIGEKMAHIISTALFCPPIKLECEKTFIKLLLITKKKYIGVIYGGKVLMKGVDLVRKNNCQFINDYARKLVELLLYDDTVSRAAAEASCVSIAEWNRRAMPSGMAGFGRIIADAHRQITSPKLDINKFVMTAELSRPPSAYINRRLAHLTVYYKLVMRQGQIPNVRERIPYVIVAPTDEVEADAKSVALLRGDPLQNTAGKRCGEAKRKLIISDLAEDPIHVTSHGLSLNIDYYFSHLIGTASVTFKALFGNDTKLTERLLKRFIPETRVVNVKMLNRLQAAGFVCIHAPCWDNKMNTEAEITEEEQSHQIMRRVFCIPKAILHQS
Readout type: IC50 (nM)

Recorded results for 2 compounds are shown here.
compound=O=C(NCc1ccc(Cl)cc1)c1cn2c3c(cc(CN4CCOCC4)cc3c1=O)N=C(NCc1ccccc1)C2 readout_type=IC50 experimental_result=120
compound=O=C1CCn2cc(C(=O)NCc3ccc(Cl)cc3)c(=O)c3cc(CN4CCOCC4)cc(c32)N1 readout_type=IC50 experimental_result=170

a. O=C(NCc1ccc(Cl)cc1)c1cn2c(=O)[nH]c3cc(CN4CCOCC4)cc(c1=O)c32
b. CC1C(=O)Nc2cc(CN3CCOCC3)cc3c(=O)c(C(=O)NCc4ccc(Cl)cc4)cn1c23 (stereo not drawn) [Example 8, hydrobromide]
c. O=C(NCc1ccc(Cl)cc1)c1cn2c3c(cc(CN4CCOCC4)cc3c1=O)N=C(NCc1ccc(Cl)cc1)C2
d. O=C1Cn2cc(C(=O)NCc3ccc(Cl)cc3)c(=O)c3cc(CN4CCOCC4)cc(c32)N1
Sort low-to-high on IC50, please. Write the labels out in the order the request specifies.
d, b, c, a
(d: 60 nM, b: 90 nM, c: 180 nM, a: 520 nM)
